Property: EC50 (read off the curve); scope: individual binders
- target.or.system: T1, human IL-21R expressed on cells (human, UniProt Q9HBE5 20-538)
- T1 construct: also called human IL-21R-BaF3; human IL-21R-TF1
- T1 sequence (Q9HBE5 20-538 limits assumed): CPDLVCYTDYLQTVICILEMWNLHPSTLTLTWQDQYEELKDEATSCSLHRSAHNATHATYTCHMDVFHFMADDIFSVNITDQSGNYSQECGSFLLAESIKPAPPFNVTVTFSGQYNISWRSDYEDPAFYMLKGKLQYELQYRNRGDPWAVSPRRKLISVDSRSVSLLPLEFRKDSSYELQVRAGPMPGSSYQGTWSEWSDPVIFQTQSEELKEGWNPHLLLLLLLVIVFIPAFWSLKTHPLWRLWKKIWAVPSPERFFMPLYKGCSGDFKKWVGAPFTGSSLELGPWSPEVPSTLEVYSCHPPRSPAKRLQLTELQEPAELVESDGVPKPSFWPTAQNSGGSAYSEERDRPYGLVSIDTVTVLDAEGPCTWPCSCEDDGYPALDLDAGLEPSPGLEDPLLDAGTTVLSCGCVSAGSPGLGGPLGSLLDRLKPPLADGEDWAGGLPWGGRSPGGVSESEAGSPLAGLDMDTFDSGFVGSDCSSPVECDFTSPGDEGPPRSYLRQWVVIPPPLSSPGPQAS
- test.summary: cell-based ELISA on CHO cells transiently expressing human IL-21R; HRP anti-human IgG, A450

INSERT INTO assay_data (binder, value_observed) VALUES
  ('AbR (antibody, human IgG1, V domains shown, CDR3 graft, residue limits derived as for m29; also called VH3/VL18; VH3DM/VL18) VH: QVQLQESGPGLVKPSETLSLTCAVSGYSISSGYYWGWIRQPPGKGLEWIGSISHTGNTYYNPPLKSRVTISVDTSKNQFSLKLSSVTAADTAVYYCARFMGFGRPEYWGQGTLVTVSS VL: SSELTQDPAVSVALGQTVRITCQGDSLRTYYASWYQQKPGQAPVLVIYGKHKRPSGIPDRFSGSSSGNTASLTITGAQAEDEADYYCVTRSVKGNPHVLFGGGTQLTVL', '~500 pM'),
  ('AbP (antibody, human IgG1, V domains shown, CDR3 graft, residue limits derived as for m29; also called VHP/VL20; VHPTM/VL20) VH: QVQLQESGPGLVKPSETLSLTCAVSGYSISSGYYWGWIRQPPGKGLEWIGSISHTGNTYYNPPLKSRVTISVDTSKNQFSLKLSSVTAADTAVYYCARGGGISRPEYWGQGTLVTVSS VL: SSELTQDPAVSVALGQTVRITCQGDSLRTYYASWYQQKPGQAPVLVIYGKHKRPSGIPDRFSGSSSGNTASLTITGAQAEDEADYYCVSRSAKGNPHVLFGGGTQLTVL', '~1000 pM'),
  ('AbQ (antibody, human IgG1, V domains shown, CDR3 graft, residue limits derived as for m29; also called VH3/VL2; VH3DM/VL2) VH: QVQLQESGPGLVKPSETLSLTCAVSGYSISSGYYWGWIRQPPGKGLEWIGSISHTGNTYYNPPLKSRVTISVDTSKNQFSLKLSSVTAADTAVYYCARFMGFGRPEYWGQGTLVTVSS VL: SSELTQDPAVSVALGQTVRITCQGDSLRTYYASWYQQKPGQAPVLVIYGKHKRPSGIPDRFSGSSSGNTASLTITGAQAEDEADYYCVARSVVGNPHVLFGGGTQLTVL', '~900 pM');

Now consider the entry below.
[in] Item AbD (antibody, IgG1, V domains shown, As for AbA: IgG1/lambda, CDR3 graft, residue limits derived; also called VHP/VL13) VH: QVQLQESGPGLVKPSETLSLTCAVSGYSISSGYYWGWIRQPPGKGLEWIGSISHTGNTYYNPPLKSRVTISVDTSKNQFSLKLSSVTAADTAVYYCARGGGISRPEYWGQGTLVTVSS VL: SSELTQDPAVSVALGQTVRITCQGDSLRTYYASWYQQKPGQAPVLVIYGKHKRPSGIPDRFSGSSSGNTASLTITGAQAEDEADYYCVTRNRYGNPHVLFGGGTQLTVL has what recorded EC50 (read off the curve)?
[out] ~900 pM
